B1: WEE1 (parent)
chain: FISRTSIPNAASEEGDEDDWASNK

variants of: B1; assay: protein stability index of a GFP-peptide fusion (GPS, HEK-293T) (PSI 1-6); higher = more stable; conditions: c terminus: a fixed tail appended;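 also: lentivirally expressed fusions sorted by FACS into six bins by GFP to DsRed ratio, PSI derived from sequencing read proportions per bin multiplied by bin number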
quantity: protein stability index
Write the number on its own, no unit after it.

Could you tell me which protein stability index is on file for E14P ?
3.98

Field entry: A21H
4.09

Field entry: P8A
3.93
